# testedSystem: alpha 2B adrenergic receptor (Homo sapiens)
# Sequence (P18089 1-450): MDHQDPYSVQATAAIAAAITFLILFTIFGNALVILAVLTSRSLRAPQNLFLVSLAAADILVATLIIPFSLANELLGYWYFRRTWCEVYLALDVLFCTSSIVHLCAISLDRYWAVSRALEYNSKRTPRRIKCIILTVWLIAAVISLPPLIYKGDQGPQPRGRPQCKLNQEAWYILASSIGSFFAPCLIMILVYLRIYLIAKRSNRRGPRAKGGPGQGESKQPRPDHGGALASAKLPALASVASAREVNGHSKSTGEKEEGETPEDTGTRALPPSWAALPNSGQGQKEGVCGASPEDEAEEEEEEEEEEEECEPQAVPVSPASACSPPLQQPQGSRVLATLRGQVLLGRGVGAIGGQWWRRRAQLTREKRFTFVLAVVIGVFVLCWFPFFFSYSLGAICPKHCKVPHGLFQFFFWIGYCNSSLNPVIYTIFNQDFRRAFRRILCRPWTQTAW
# experimentalDetails: RSAT (Receptor Selection and Amplification Technology) assay, alpha 2B
# conditionNotes: cells expressing alpha 2B receptor alone; receptor-mediated growth response
# Method: The compounds were synthesized and tested for alpha adrenergic activity using the Receptor Selection and Amplification Technology (RSAT) assay (Messier et. al., 1995, Pharmacol. Toxicol. 76, pp. 308-311). Cells expressing each of the alpha-2 adrenergic receptors alone were incubated with the Compound 1 and a receptor-mediated growth response was measured. A compound's activity is expressed as its relative efficacy compared to a standard full agonist (see table). […]
For each entry below, report its EC50 value.
The answer is to be given in nM; state only the numeric part.

Tell me the measured EC50 of Cc1nccc(C(C)c2c[nH]cn2)c1C (centres unmarked) , please.
16.7

Field entry: CC(c1c[nH]cn1)c1ccnc2c1CCCC2 (centres unmarked)
23.5

====

# testedSystem: alpha 2C adrenergic receptor (Homo sapiens)
# Sequence (P18825 whole entry): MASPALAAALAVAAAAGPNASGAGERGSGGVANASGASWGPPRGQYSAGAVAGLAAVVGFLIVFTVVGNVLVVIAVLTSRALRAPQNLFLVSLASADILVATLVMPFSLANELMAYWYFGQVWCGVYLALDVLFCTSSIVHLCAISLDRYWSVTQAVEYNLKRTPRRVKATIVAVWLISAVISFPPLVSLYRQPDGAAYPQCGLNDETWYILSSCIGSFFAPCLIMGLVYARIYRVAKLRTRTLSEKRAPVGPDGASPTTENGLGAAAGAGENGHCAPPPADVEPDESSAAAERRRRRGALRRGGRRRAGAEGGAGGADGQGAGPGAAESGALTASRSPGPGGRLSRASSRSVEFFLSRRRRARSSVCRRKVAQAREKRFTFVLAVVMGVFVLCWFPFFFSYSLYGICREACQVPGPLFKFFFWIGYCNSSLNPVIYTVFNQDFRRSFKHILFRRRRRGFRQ
# experimentalDetails: RSAT (Receptor Selection and Amplification Technology) assay, alpha 2C
# conditionNotes: cells expressing alpha 2C receptor alone; receptor-mediated growth response
readoutKind: pEC50
pEC50 is a log-scale quantity: -log10 of the concentration expressed in molar.

What measured pEC50 goes with CC(c1c[nH]cn1)c1ccnc2c1CCCC2 (centres unmarked) ?
6.43

And Cc1nccc(C(C)c2c[nH]cn2)c1C (centres unmarked) ?
5.89
